Documented Papp A→B at 2 h across a set of molecules
# Protocol Details: in vitro
# Run Conditions: human, Caco-2
# Description: Apparent intrinsic permeability in human Caco2 cells from apical to basolateral side after 120 mins by mass spectrometry
Measured Metric: Papp A→B at 2 h

COC(=O)c1ccccc1-c1c2ccc(=N)cc-2oc2cc(N)ccc12.Cl [RHODAMINE123]; 0.61 ×10⁻⁶ cm/s
CC(C)NCC(O)COc1cccc2ccccc12 (centres undefined) [PROPRANOLOL]; 21.2 ×10⁻⁶ cm/s
CNC(=C[N+](=O)[O-])NCCSCc1ccc(CN(C)C)o1 [RANITIDINE]; 0.87 ×10⁻⁶ cm/s
Cc1ncc(C(=O)Nc2ccc(-c3cccc(S(=O)(=O)C4CC4)c3)cn2)cn1; 25.7 ×10⁻⁶ cm/s

---

# Protocol Details: Half life in dog liver microsomes
# Format: ADME, Canis lupus familiaris, microsome
Measured Metric: half-life

Cc1ncc(C(=O)Nc2ccc(-c3cccc(S(=O)(=O)C4CC4)c3)cn2)cn1; 49.9 min
Cc1ncc(C(=O)Nc2ccc(-c3ccsc3)cn2)cn1; 35.2 min
Cc1ncc(C(=O)Nc2ccc(-c3cccc(OC4CC4)c3)cn2)cn1; 20.6 min

---

# Protocol Details: Stability in human plasma assessed as parent compound remaining after 75 mins relative to initial time
# Type: ADME, cell-free
# Run Conditions: read-out: Stability
Measured Metric: remaining at 1.25 h (%)

Cc1ncc(C(=O)Nc2ccc(-c3cccc(S(=O)(=O)C4CC4)c3)cn2)cn1; 93
Cc1ncc(C(=O)Nc2ccc(-c3cccc(OC4CC4)c3)cn2)cn1; 89.4
CC(C)[N+](C)(CCOC(=O)C1c2ccccc2Oc2ccccc21)C(C)C; 13.9
Cc1ncc(C(=O)Nc2ccc(-c3ccsc3)cn2)cn1; 91.7

---

# Protocol Details: Half life in mouse liver microsomes
# Format: ADME, microsome
Measured Metric: half-life (min)

Cc1ncc(C(=O)Nc2ccc(-c3cccc(S(=O)(=O)C4CC4)c3)cn2)cn1; 67.4
Cc1ncc(C(=O)Nc2ccc(-c3ccsc3)cn2)cn1; 27.3
Cc1ncc(C(=O)Nc2ccc(-c3cccc(OC4CC4)c3)cn2)cn1; 13.7

---

# Protocol Details: Stability in human plasma assessed as parent compound remaining after 4 hrs relative to initial time
# Type: ADME, cell-free
# Run Conditions: read-out: Stability
Measured Metric: remaining at 4 h (%)

Cc1ncc(C(=O)Nc2ccc(-c3cccc(OC4CC4)c3)cn2)cn1; 91.5
CC(C)[N+](C)(CCOC(=O)C1c2ccccc2Oc2ccccc21)C(C)C; 0.34
Cc1ncc(C(=O)Nc2ccc(-c3cccc(S(=O)(=O)C4CC4)c3)cn2)cn1; 103
Cc1ncc(C(=O)Nc2ccc(-c3ccsc3)cn2)cn1; 86.9

---

# Protocol Details: in vitro
# Run Conditions: human, Caco-2
# Description: Apparent intrinsic permeability in human Caco2 cells from basolateral to apical side after 120 mins by mass spectrometry
Measured Metric: Papp B→A at 2 h

COC(=O)c1ccccc1-c1c2ccc(=N)cc-2oc2cc(N)ccc12.Cl; 71.7 nm/s
CC(C)NCC(O)COc1cccc2ccccc12 (centres undefined); 211 nm/s
Cc1ncc(C(=O)Nc2ccc(-c3cccc(S(=O)(=O)C4CC4)c3)cn2)cn1; 261 nm/s
CNC(=C[N+](=O)[O-])NCCSCc1ccc(CN(C)C)o1; 28.3 nm/s

---

# Protocol Details: Tmax in rat administered as single po dose by mass spectrometry
# Assay type: ADME, organism-based
# Run Conditions: in vivo
Measured Metric: Tmax (min)

Cc1ncc(C(=O)Nc2ccc(-c3cccc(OC4CC4)c3)cn2)cn1; 15
